Readings of Ki for the listed molecules
molecular target: purified human Factor XIa (Homo sapiens (Human)); assay: biochemical; assay type: biochemical; details: read-out: Factor XIa Ki
Sequence (P03951 whole entry, looked up): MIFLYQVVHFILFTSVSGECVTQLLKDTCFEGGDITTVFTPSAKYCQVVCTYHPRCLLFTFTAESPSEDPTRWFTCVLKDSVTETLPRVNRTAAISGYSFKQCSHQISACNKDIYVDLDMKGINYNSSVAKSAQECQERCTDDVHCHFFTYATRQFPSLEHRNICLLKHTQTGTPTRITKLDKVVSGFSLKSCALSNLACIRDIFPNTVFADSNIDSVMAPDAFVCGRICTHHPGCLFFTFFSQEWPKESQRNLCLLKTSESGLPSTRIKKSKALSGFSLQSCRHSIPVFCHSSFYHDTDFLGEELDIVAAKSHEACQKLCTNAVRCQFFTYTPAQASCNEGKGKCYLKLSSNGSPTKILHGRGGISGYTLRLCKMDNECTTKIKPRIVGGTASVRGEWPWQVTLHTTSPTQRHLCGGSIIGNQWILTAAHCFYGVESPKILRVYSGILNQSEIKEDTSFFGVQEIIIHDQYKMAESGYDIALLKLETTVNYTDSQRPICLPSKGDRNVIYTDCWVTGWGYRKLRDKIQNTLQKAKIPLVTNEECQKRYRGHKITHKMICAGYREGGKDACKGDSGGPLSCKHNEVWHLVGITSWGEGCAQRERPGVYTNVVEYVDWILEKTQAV
Sequence (P03951 whole entry partner, looked up): as the sequence (P03951 whole entry, looked up) above
Structures can show the parent of a compound that is named as a salt.
measured-metric: Ki (nM)

[
  {
    "molecule": "COC(=O)Nc1ccc2c(c1)NC(=O)[C@H](C)CCC[C@H](N1CCC(c3c(C#N)ccc(Cl)c3F)=CC1=O)c1cc-2cc(=O)[nH]1 [Example 30, TFA salt]",
    "measured-metric": "Ki",
    "measurement-units": "nM",
    "value-comparator": "=",
    "reported-result": 0.21
  },
  {
    "molecule": "COC(=O)c1ccc2c(c1)-c1cccc(c1)[C@@H](N1CCC(c3c(C#N)ccc(C#N)c3F)=CC1=O)CCC[C@@H](C)C(=O)N2",
    "measured-metric": "Ki",
    "measurement-units": "nM",
    "value-comparator": ">",
    "reported-result": 417
  },
  {
    "molecule": "C[C@@H]1CCC[C@H](N2CCC(c3c(F)ccc(Cl)c3F)=CC2=O)c2cc(ccn2)-c2ccc(NC(=N)N)cc2NC1=O [Example 192, TFA salt]",
    "measured-metric": "Ki",
    "measurement-units": "nM",
    "value-comparator": "=",
    "reported-result": 91
  },
  {
    "molecule": "CO[C@H]1[C@H](O)[C@@H](CO)OC(Nc2ccc3c(c2)NC(=O)[C@H](C)CCC[C@H](N2CCC(c4c(F)ccc(Cl)c4F)=CC2=O)c2cc-3ccn2)[C@@H]1O (stereo partly shown)",
    "measured-metric": "Ki",
    "measurement-units": "nM",
    "value-comparator": "=",
    "reported-result": 8.29
  },
  {
    "molecule": "C[C@@H]1CCC[C@H](N2CCC(c3c(Br)ccc(Cl)c3F)=CC2=O)c2cc(ccn2)-c2ccc(C(=O)O)cc2NC1=O [Example 28, TFA salt]",
    "measured-metric": "Ki",
    "measurement-units": "nM",
    "value-comparator": ">",
    "reported-result": 443
  },
  {
    "molecule": "C[C@@H]1CCC[C@H](N2CCC(c3c(F)ccc(Cl)c3F)=CC2=O)c2cc(ccn2)-c2ccc(NC3O[C@H](CO)[C@@H](O)[C@H](O)[C@@H]3N)cc2NC1=O (stereo partly shown)",
    "measured-metric": "Ki",
    "measurement-units": "nM",
    "value-comparator": "=",
    "reported-result": 3.61
  },
  {
    "molecule": "COC(=O)c1ccc2c(c1)-c1cccc(c1)[C@@H](N1CCC(c3c(F)ccc(Cl)c3F)=CC1=O)CCC[C@@H](C)C(=O)N2",
    "measured-metric": "Ki",
    "measurement-units": "nM",
    "value-comparator": ">",
    "reported-result": 398
  },
  {
    "molecule": "CC1CCC[C@H](N2CCC(c3c(F)ccc(Cl)c3F)=CC2=O)c2cc(ccn2)-c2ccc(C(=O)O)cc2NC1=O (stereo partly shown) [Example 105, TFA salt]",
    "measured-metric": "Ki",
    "measurement-units": "nM",
    "value-comparator": ">",
    "reported-result": 342
  },
  {
    "molecule": "C[C@@H]1CCC[C@H](n2ccc(-c3cccc(Cl)c3F)cc2=O)c2cc(ccn2)-c2c(F)cc(F)cc2NC1=O [Example 212, TFA salt]",
    "measured-metric": "Ki",
    "measurement-units": "nM",
    "value-comparator": "=",
    "reported-result": 111
  },
  {
    "molecule": "COC(=O)Nc1ccc2c(c1)NC(=O)CCCCC[C@H](N1CCC(c3c(F)ccc(Cl)c3F)=CC1=O)c1cc-2ccn1 [Example 219, TFA salt]",
    "measured-metric": "Ki",
    "measurement-units": "nM",
    "value-comparator": "=",
    "reported-result": 6.61
  },
  {
    "molecule": "C[C@@H]1CCC[C@H](n2ccc(-c3cccc(Cl)c3F)cc2=O)c2cc(ccn2)-c2ccccc2NC1=O [Example 65, TFA salt]",
    "measured-metric": "Ki",
    "measurement-units": "nM",
    "value-comparator": "=",
    "reported-result": 47.6
  },
  {
    "molecule": "C[C@@H]1CCC[C@H](N2CCC(c3c(F)ccc(Cl)c3F)=CC2=O)c2cc(ccn2)-c2ccc(Nc3ccncc3)cc2NC1=O [Example 89, TFA salt]",
    "measured-metric": "Ki",
    "measurement-units": "nM",
    "value-comparator": "=",
    "reported-result": 2.43
  },
  {
    "molecule": "COC(=O)Nc1ccc2c(c1)NC(=O)[C@H](C)CCC[C@H](N1CCC(c3nccc(Cl)c3F)=CC1=O)c1cc-2ccn1 [Example 10, TFA salt]",
    "measured-metric": "Ki",
    "measurement-units": "nM",
    "value-comparator": "=",
    "reported-result": 0.92
  },
  {
    "molecule": "CC(=O)NC(=S)Nc1ccc2c(c1)NC(=O)[C@H](C)CCC[C@H](N1CCC(c3c(F)ccc(Cl)c3F)=CC1=O)c1cc-2ccn1",
    "measured-metric": "Ki",
    "measurement-units": "nM",
    "value-comparator": "=",
    "reported-result": 7.86
  },
  {
    "molecule": "C[C@@H]1CCC[C@H](N2CCC(c3c(F)ccc(Cl)c3F)=CC2=O)c2cc(ccn2)-c2c(cccc2C(=O)O)NC1=O [Example 214, TFA salt]",
    "measured-metric": "Ki",
    "measurement-units": "nM",
    "value-comparator": ">",
    "reported-result": 423
  },
  {
    "molecule": "COC(=O)Nc1ccc2c(c1)NC(=O)[C@H](C)CCC[C@H](N1CCC(c3cccc(Cl)n3)=CC1=O)c1cc-2ccn1 [Example 157, TFA salt]",
    "measured-metric": "Ki",
    "measurement-units": "nM",
    "value-comparator": "=",
    "reported-result": 74.9
  },
  {
    "molecule": "C[C@@H]1CCC[C@H](N2CCC(c3cc(Cl)ccc3-n3ccnn3)=CC2=O)c2cc(ccn2)-c2cc(F)ccc2NC1=O",
    "measured-metric": "Ki",
    "measurement-units": "nM",
    "value-comparator": "=",
    "reported-result": 1.6
  },
  {
    "molecule": "C[C@@H]1CCC[C@H](N2CCC(c3c(C(F)(F)F)ccc(Cl)c3F)=CC2=O)c2cc(ccn2)-c2ccccc2NC1=O [Example 67, TFA salt]",
    "measured-metric": "Ki",
    "measurement-units": "nM",
    "value-comparator": "=",
    "reported-result": 2.98
  },
  {
    "molecule": "C[C@@H]1CCC[C@H](N2CCC(c3c(F)ccc(C#N)c3F)=CC2=O)c2cc(ccn2)-c2cc(C#N)ccc2NC1=O",
    "measured-metric": "Ki",
    "measurement-units": "nM",
    "value-comparator": ">",
    "reported-result": 408
  },
  {
    "molecule": "C[C@@H]1CCC[C@H](N2CCC(c3c(F)ccc(Cl)c3F)=CC2=O)c2cc(ccn2)-c2ccc(F)cc2NC1=O [Example 14, TFA salt]",
    "measured-metric": "Ki",
    "measurement-units": "nM",
    "value-comparator": "=",
    "reported-result": 34.8
  },
  {
    "molecule": "COC(=O)c1ccc2c(c1)-c1ccnc(c1)[C@@H](N1CCC(c3c(F)ccc(Cl)c3F)=CC1=O)CCC[C@@H](C)C(=O)N2",
    "measured-metric": "Ki",
    "measurement-units": "nM",
    "value-comparator": "=",
    "reported-result": 186
  },
  {
    "molecule": "C[C@@H]1CCC[C@H](N2CCC(c3c(F)ccc(Cl)c3F)=CC2=O)c2cc(ccn2)-c2cc(CO)ccc2NC1=O",
    "measured-metric": "Ki",
    "measurement-units": "nM",
    "value-comparator": "=",
    "reported-result": 90.1
  },
  {
    "molecule": "C[C@@H]1CCC[C@H](N2CCC(c3c(Br)ccc(Cl)c3F)=CC2=O)c2cc(ccn2)-c2cc(F)ccc2NC1=O",
    "measured-metric": "Ki",
    "measurement-units": "nM",
    "value-comparator": "=",
    "reported-result": 3.59
  },
  {
    "molecule": "C[C@@H]1CCC[C@H](N2CCC(c3c(F)ccc(Cl)c3F)=CC2=O)c2cc(ccn2)-c2cc3c(cc2NC1=O)NC(=O)CC3 [Example 86, TFA salt]",
    "measured-metric": "Ki",
    "measurement-units": "nM",
    "value-comparator": "=",
    "reported-result": 0.72
  },
  {
    "molecule": "C[C@@H]1CCC[C@H](N2CCC(c3c(F)ccc(Cl)c3F)=CC2=O)c2cc(ccn2)-c2ccc(NC3O[C@H](CO)[C@@H](O[C@H]4O[C@H](CO)[C@@H](O[C@H]5O[C@H](CO)[C@@H](O)[C@H](O)[C@H]5O)[C@H](O)[C@H]4O)[C@H](O)[C@H]3O)cc2NC1=O (stereo partly shown)",
    "measured-metric": "Ki",
    "measurement-units": "nM",
    "value-comparator": "=",
    "reported-result": 4.77
  }
]
